# Type: in vivo, human
# Stated conditions: human, plasma, oral, 400 mg/day, Tmax, Panel 1 (MT), Dose 4; median (range)
Measurement kind: Tmax

*Q* Name the reported Tmax value associated with the compound O=C(O)[C@]1(Cc2cccc(Nc3nccs3)n2)CC[C@@H](Oc2cccc(Cl)c2F)CC1 [MK-5108]
*A* 6 h

====

# Type: in vivo, human
# Stated conditions: human, plasma, iv, C12h, 225 mg/day, Panel 2 (CT, docetaxel 60 mg/m^2 IV), Dose 4
Measurement kind: concentration at 12 h (nM)
Only the number, expressed in nM, is required.

*Q* Reported concentration at 12 h, compound O=C(O)[C@]1(Cc2cccc(Nc3nccs3)n2)CC[C@@H](Oc2cccc(Cl)c2F)CC1 [MK-5108] : ____
*A* 660

====

# Type: in vivo, human
# Stated conditions: human, plasma, oral, mean t1/2, range across dose levels, across both panels
Measurement kind: half-life

*Q* What value of measured half-life is listed for O=C(O)[C@]1(Cc2cccc(Nc3nccs3)n2)CC[C@@H](Oc2cccc(Cl)c2F)CC1 [MK-5108] ?
*A* 6.6 to 13.5 h

====

# Format: in vivo, human
# Stated conditions: human, plasma, iv, 60 mg/m2, Cmax, 150 mg/day, Panel 2 (CT, docetaxel 60 mg/m^2 IV), Dose 1
Measurement kind: Cmax (µM)
Could you give me the number in µM? Just the number is fine.

*Q* Suppose we examine the compound O=C(O)[C@]1(Cc2cccc(Nc3nccs3)n2)CC[C@@H](Oc2cccc(Cl)c2F)CC1 ; what Cmax value has been reported?
*A* 3.5

====

# Assay type: in vivo, human
# Stated conditions: human, plasma, oral, 200 mg/day, Tmax, Panel 1 (MT), Dose 4; median (range)
Measurement kind: Tmax

*Q* Need Tmax of O=C(O)[C@]1(Cc2cccc(Nc3nccs3)n2)CC[C@@H](Oc2cccc(Cl)c2F)CC1 [MK-5108] , thanks.
*A* 4 h

====

# Type: in vivo, human
# Stated conditions: human, plasma, oral, 1800 mg/day, t1/2, 1800 mg/day, Panel 1 (MT), Dose 4
Measurement kind: half-life

*Q* Value lookup for half-life; key = O=C(O)[C@]1(Cc2cccc(Nc3nccs3)n2)CC[C@@H](Oc2cccc(Cl)c2F)CC1
*A* 6.6 h

====

# Type: in vivo, human
# Stated conditions: human, plasma, oral, 800 mg/day, Cmax, Panel 1 (MT), Dose 1
Measurement kind: Cmax
Phrase the answer as number then unit, nothing more needed.

*Q* // query Cmax value for entry O=C(O)[C@]1(Cc2cccc(Nc3nccs3)n2)CC[C@@H](Oc2cccc(Cl)c2F)CC1
*A* 19.5 µM

====

# Type: in vivo, human
# Stated conditions: human, plasma, oral, 200 mg/day, Cmax, Panel 1 (MT), Dose 4
Measurement kind: Cmax (µM)
Record the value in µM, omitting the unit from your answer.

*Q* Which Cmax reading was recorded for the molecule O=C(O)[C@]1(Cc2cccc(Nc3nccs3)n2)CC[C@@H](Oc2cccc(Cl)c2F)CC1 [MK-5108] ?
*A* 4.8

====

# Type: in vivo, human
# Stated conditions: human, plasma, oral, 200 mg/day, AUC0-12h, Panel 1 (MT), Dose 4
Measurement kind: AUC(0-t) (µM·h)
Provide the reading as a plain figure in µM·h.

*Q* Record request: AUC(0-t) value, item O=C(O)[C@]1(Cc2cccc(Nc3nccs3)n2)CC[C@@H](Oc2cccc(Cl)c2F)CC1 [MK-5108]
*A* 31.2

====

# Type: in vivo, human
# Stated conditions: human, plasma, iv, 60 mg/m2, Cmax, 100 mg/day, Panel 2 (CT, docetaxel 60 mg/m^2 IV), Dose 4
Measurement kind: Cmax

*Q* // Cmax lookup, key: O=C(O)[C@]1(Cc2cccc(Nc3nccs3)n2)CC[C@@H](Oc2cccc(Cl)c2F)CC1
*A* 2200 nM

====

# Assay type: in vivo, human
# Stated conditions: human, plasma, iv, 60 mg/m2, AUC0-12h, 225 mg/day, Panel 2 (CT, docetaxel 60 mg/m^2 IV), Dose 1
Measurement kind: AUC(0-t) (µM·h)
Give just the number in µM·h; leave the unit off.

*Q* Which AUC(0-t) is reported for this molecule? O=C(O)[C@]1(Cc2cccc(Nc3nccs3)n2)CC[C@@H](Oc2cccc(Cl)c2F)CC1
*A* 18.5

====

# Format: in vivo, human
# Stated conditions: human, plasma, iv, 60 mg/m2, AUC0-12h, 100 mg/day, Panel 2 (CT, docetaxel 60 mg/m^2 IV), Dose 4
Measurement kind: AUC(0-t)
# output: numeric value plus its unit

*Q* Reported AUC(0-t) for O=C(O)[C@]1(Cc2cccc(Nc3nccs3)n2)CC[C@@H](Oc2cccc(Cl)c2F)CC1 : what is it?
*A* 10.8 µM·h

====

# Type: in vivo, human
# Stated conditions: human, plasma, oral, 1500 mg/day, Cmax, Panel 1 (MT), Dose 4
Measurement kind: Cmax (µM)
Give just the numeric value; µM need not be written.

*Q* Give its Cmax value. Item: O=C(O)[C@]1(Cc2cccc(Nc3nccs3)n2)CC[C@@H](Oc2cccc(Cl)c2F)CC1
*A* 28.9

====

# Type: in vivo, human
# Stated conditions: human, plasma, oral, 400 mg/day, AUC0-12h, Panel 1 (MT), Dose 4
Measurement kind: AUC(0-t) (µM·h)
State just the number; it will be interpreted in µM·h.

*Q* Value lookup for AUC(0-t); key = O=C(O)[C@]1(Cc2cccc(Nc3nccs3)n2)CC[C@@H](Oc2cccc(Cl)c2F)CC1
*A* 75.7

====

# Type: in vivo, human
# Stated conditions: human, plasma, oral, 200 mg/day, C12h, Panel 1 (MT), Dose 1
Measurement kind: concentration at 12 h (nM)
Report the figure in nM without appending any unit label.

*Q* Item O=C(O)[C@]1(Cc2cccc(Nc3nccs3)n2)CC[C@@H](Oc2cccc(Cl)c2F)CC1 has what recorded concentration at 12 h?
*A* 350

====

# Type: in vivo, human
# Stated conditions: human, plasma, iv, 60 mg/m2, AUC0-12h, 225 mg/day, Panel 2 (CT, docetaxel 60 mg/m^2 IV), Dose 4
Measurement kind: AUC(0-t) (µM·h)
Write down the numeric answer in µM·h and omit the unit.

*Q* Any idea what AUC(0-t) was measured for O=C(O)[C@]1(Cc2cccc(Nc3nccs3)n2)CC[C@@H](Oc2cccc(Cl)c2F)CC1 [MK-5108] ?
*A* 23.4

====

# Assay type: in vivo, human
# Stated conditions: human, plasma, iv, 60 mg/m2, Tmax, 100 mg/day, Panel 2 (CT, docetaxel 60 mg/m^2 IV), Dose 4; median (range)
Measurement kind: Tmax (h)
Report as a plain number; the unit h is understood.

*Q* Form field: reported Tmax of O=C(O)[C@]1(Cc2cccc(Nc3nccs3)n2)CC[C@@H](Oc2cccc(Cl)c2F)CC1 [MK-5108]
*A* 4

====

# Assay type: in vivo, human
# Stated conditions: human, plasma, oral, 1800 mg/day, AUC0-12h, Panel 1 (MT), Dose 4
Measurement kind: AUC(0-t) (µM·h)
Field format: number, assumed µM·h, no unit text.

*Q* # input compound: O=C(O)[C@]1(Cc2cccc(Nc3nccs3)n2)CC[C@@H](Oc2cccc(Cl)c2F)CC1 ; wanted: its AUC(0-t)
*A* 234

====

# Assay type: in vivo, human
# Stated conditions: human, plasma, oral, 1500 mg/day, AUC0-12h, Panel 1 (MT), Dose 1
Measurement kind: AUC(0-t) (µM·h)
Enter your answer as a number in µM·h; do not include the unit.

*Q* Item O=C(O)[C@]1(Cc2cccc(Nc3nccs3)n2)CC[C@@H](Oc2cccc(Cl)c2F)CC1 has what recorded AUC(0-t)?
*A* 83.2

====

# Assay type: in vivo, human
# Stated conditions: human, plasma, iv, 60 mg/m2, AUC0-12h, 150 mg/day, Panel 2 (CT, docetaxel 60 mg/m^2 IV), Dose 1
Measurement kind: AUC(0-t) (µM·h)
Give the value in µM·h but do not write µM·h after it.

*Q* Query: AUC(0-t); subject: O=C(O)[C@]1(Cc2cccc(Nc3nccs3)n2)CC[C@@H](Oc2cccc(Cl)c2F)CC1
*A* 15

====

# Format: in vivo, human
# Stated conditions: human, plasma, iv, C12h, 225 mg/day, Panel 2 (CT, docetaxel 60 mg/m^2 IV), Dose 1
Measurement kind: concentration at 12 h (nM)
Field: numeric (nM). Do not append units.

*Q* Please give the measured concentration at 12 h for this molecule: O=C(O)[C@]1(Cc2cccc(Nc3nccs3)n2)CC[C@@H](Oc2cccc(Cl)c2F)CC1
*A* 460

====

# Type: in vivo, human
# Stated conditions: human, plasma, oral, 400 mg/day, Cmax, Panel 1 (MT), Dose 4
Measurement kind: Cmax (µM)
Your answer should be a plain number; it is taken to be in µM.

*Q* Form field: reported Cmax of O=C(O)[C@]1(Cc2cccc(Nc3nccs3)n2)CC[C@@H](Oc2cccc(Cl)c2F)CC1 [MK-5108]
*A* 11

====

# Format: in vivo, human
# Stated conditions: human, plasma, iv, C12h, 150 mg/day, Panel 2 (CT, docetaxel 60 mg/m^2 IV), Dose 4
Measurement kind: concentration at 12 h
Please state the number and follow it with the unit.

*Q* Looking for the measured concentration at 12 h of O=C(O)[C@]1(Cc2cccc(Nc3nccs3)n2)CC[C@@H](Oc2cccc(Cl)c2F)CC1 , can you help?
*A* 510 nM
